Please go through the items and note down their IC50.
Test system: Serine/threonine-protein kinase PLK1 (Homo sapiens) (UniProt P53350)
Sequence (P53350 whole entry, looked up): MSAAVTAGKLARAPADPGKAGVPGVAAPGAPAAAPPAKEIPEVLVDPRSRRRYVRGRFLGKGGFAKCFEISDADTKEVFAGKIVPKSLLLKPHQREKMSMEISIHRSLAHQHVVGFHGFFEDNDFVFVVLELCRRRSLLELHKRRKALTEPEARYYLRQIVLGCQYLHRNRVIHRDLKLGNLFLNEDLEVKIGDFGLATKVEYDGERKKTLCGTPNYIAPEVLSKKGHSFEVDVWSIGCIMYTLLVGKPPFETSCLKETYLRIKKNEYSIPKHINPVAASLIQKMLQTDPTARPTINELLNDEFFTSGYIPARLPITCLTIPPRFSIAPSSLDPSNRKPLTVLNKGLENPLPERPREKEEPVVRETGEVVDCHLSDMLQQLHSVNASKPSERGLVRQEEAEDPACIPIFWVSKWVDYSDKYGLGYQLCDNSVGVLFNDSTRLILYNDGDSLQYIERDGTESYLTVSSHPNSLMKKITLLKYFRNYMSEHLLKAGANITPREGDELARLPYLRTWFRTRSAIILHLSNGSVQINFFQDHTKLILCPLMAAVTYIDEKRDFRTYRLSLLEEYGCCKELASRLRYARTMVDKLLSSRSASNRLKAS
Experiment summary: Plk1 PBD phosphopeptide interaction blockers – biochemical, fluorescence polarization, synthesized analogs, IC50, SAR follow-up (AID 1082)
Conditions used: PLK1 PBD phosphopeptide binding
Activity calls are given as the source filed them. No rule for the calls is given here.

I'd like to know its IC50. The compound in question is Cn1c2c(c(=O)n(C)c1=O)C(c1ccc(C(F)(F)F)cc1)CC(=O)N2 (configuration not stated)
> 50 µM (inactive)

I'd like to know its IC50. The compound in question is `O=c1[nH]c(=S)[nH]c(O)c1/C=N/Nc1ccccc1`
> 50 µM (inactive)

I'd like to know its IC50. The compound in question is `CCOC(=O)c1ccc(NC(=O)c2c(N)n(Cc3ccccc3)c(=O)[nH]c2=O)cc1`
> 50 µM (inactive)

I'd like to know its IC50. The compound in question is `CCCCOC(=O)c1ccc(NC(=O)c2c(O)[nH]c(=O)[nH]c2=O)cc1`
> 50 µM (inactive)

I'd like to know its IC50. The compound in question is `CCOC(=O)c1ccc(NC(=O)c2c(NCc3ccccc3)[nH]c(=O)[nH]c2=O)cc1`
> 50 µM (inactive)

I'd like to know its IC50. The compound in question is `Cn1cc(C(=O)CNc2ccccc2)c(=O)n(C)c1=O`
> 50 µM (inactive)

I'd like to know its IC50. The compound in question is `CCOC(=O)c1ccc(NS(=O)(=O)c2c(N)[nH]c(=O)[nH]c2=O)cc1`
> 50 µM (inactive)

I'd like to know its IC50. The compound in question is `O=C(N/N=C/c1c(O)[nH]c(=O)[nH]c1=O)c1ccncc1`
> 50 µM (inactive)

I'd like to know its IC50. The compound in question is `CCOC(=O)c1ccccc1NC(=O)c1c(N)n(C)c(=O)[nH]c1=O`
> 50 µM (inactive)

I'd like to know its IC50. The compound in question is `Cn1c(N)c(S(=O)(=O)Nc2ccccc2)c(=O)n(C)c1=O`
> 50 µM (inactive)

I'd like to know its IC50. The compound in question is `Cc1ccc(NC(=O)c2c[nH]c(=O)[nH]c2=O)cc1`
> 50 µM (inactive)

I'd like to know its IC50. The compound in question is `O=c1[nH]c(NC2CCCCC2)c([N+](=O)[O-])c(=O)[nH]1`
> 50 µM (inactive)

I'd like to know its IC50. The compound in question is `CCOC(=O)c1ccc(NC(=O)c2c(N)n(C)c(=O)n(C)c2=O)cc1`
> 50 µM (inactive)

I'd like to know its IC50. The compound in question is `COC(=O)c1ccccc1NC(=O)c1c(O)c2c([nH]c1=O)CCCC2`
> 50 µM (inactive)

I'd like to know its IC50. The compound in question is `CCOC(=O)c1ccc(NS(=O)(=O)c2c(N)n(C)c(=O)n(C)c2=O)cc1`
> 50 µM (inactive)

I'd like to know its IC50. The compound in question is `Cn1c(N)c(C(=O)Nc2ccccc2)c(=O)[nH]c1=O`
> 50 µM (inactive)

I'd like to know its IC50. The compound in question is `Cc1ccc(N=Cc2c(O)n(-c3ccc(C)cc3)c(=O)[nH]c2=O)cc1`
> 50 µM (inactive)

I'd like to know its IC50. The compound in question is `CCCCOC(=O)c1ccc(NC(=O)c2c(N)n(C)c(=O)[nH]c2=O)cc1`
> 50 µM (inactive)

I'd like to know its IC50. The compound in question is `CCOC(=O)c1cccc(NC(=O)c2c(NCc3ccccc3)[nH]c(=O)[nH]c2=O)c1`
> 50 µM (inactive)

I'd like to know its IC50. The compound in question is `CCOC(=O)c1cccc(NC(=O)c2c(O)[nH]c(=O)[nH]c2=O)c1`
> 50 µM (inactive)

I'd like to know its IC50. The compound in question is `CCOC(=O)CCCCCNC(=O)c1c(N)n(C)c(=O)n(C)c1=O`
> 50 µM (inactive)

I'd like to know its IC50. The compound in question is `CCOc1ccc(NC(=O)c2c(N)n(C)c(=O)[nH]c2=O)cc1`
> 50 µM (inactive)
